Target: hERG potassium ion channel (Homo sapiens, UniProt Q12809)
Construct: expressed in transfected cells; host or cells: CHO (CHO-hERG cell line)
Sequence (Q12809 whole entry): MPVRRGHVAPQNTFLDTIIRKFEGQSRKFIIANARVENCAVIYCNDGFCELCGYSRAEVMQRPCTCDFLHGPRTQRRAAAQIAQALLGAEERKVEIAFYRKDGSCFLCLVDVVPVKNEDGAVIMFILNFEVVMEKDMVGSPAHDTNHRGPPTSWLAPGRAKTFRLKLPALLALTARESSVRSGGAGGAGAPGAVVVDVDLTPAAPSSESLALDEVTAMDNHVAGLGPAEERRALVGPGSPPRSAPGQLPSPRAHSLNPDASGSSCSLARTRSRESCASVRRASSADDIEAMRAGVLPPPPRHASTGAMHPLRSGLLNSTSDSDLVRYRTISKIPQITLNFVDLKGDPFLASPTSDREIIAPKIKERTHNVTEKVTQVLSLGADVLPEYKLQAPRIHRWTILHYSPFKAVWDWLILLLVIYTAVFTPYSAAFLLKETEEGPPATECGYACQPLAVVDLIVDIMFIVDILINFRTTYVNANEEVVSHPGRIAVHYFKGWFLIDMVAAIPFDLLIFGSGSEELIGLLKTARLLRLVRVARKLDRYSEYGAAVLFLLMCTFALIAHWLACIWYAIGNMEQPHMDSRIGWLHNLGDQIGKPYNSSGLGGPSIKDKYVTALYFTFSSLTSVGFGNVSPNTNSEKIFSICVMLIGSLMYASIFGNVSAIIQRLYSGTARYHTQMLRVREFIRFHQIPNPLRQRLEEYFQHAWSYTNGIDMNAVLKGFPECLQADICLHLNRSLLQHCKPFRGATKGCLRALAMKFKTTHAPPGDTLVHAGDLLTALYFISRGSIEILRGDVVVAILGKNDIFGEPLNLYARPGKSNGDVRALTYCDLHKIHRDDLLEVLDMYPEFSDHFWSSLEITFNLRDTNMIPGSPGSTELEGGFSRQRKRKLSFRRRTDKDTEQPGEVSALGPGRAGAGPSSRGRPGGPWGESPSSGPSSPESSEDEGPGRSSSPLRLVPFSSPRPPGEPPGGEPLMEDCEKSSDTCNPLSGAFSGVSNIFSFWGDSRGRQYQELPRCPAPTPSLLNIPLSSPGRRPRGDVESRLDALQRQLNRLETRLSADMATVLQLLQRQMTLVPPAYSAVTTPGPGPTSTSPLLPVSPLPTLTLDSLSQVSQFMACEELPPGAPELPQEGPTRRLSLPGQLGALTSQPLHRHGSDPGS
Assay: Inhibition test on hERG potassium ion channel (automated patch clamp, CHO-hERG cells)
Format: cell-based
Details: human, CHO cells that express hERG (CHO-hERG), Qpatch, highest test concentration 40.00 μM

{"mol": "Cc1cc(N[C@@H]2CCCN(CC(F)(F)F)C2)nnc1-c1ccc2sccc2c1O", "IC50 at 2.5 min": "≥ 42.6 µM"}

====

Let's look at some molecules and their measured log10 IC50.
Biological target: NLRP3 (Homo sapiens, UniProt Q96P20)
Construct: This experiment utilized the human-derived monocyte cell line THP1; endogenous in cells
Sequence (Q96P20 whole entry): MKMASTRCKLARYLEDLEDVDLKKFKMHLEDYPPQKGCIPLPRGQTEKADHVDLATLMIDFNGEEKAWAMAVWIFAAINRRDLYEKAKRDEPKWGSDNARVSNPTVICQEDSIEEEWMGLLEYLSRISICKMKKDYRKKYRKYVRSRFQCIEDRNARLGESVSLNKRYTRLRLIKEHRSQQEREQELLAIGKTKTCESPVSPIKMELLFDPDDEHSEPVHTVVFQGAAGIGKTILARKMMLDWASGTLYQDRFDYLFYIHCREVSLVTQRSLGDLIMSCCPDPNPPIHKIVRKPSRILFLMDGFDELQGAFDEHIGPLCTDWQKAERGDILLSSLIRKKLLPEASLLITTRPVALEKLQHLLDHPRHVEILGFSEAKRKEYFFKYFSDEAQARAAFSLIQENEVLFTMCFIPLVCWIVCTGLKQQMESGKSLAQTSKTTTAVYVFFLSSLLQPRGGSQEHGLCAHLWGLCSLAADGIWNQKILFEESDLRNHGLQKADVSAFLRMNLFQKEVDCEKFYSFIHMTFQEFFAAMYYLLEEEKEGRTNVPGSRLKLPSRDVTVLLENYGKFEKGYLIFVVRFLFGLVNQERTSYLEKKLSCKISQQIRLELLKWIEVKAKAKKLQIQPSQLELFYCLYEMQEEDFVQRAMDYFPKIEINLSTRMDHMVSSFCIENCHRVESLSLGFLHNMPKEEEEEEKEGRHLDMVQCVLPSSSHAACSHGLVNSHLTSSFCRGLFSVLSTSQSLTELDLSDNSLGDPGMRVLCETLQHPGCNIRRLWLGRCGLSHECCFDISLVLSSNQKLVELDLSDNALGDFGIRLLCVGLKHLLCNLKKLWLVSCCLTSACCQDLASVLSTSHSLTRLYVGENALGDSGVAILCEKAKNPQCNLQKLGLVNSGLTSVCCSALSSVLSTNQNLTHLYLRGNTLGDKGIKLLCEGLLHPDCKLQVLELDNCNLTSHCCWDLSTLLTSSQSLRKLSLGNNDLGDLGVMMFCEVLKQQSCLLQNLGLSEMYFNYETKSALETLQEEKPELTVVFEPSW
Test: Detecting IC50 of NLRP3 inhibitor by using THP-1 cells (IL-1β secretion, CBA)
Conditions: PMA/LPS/ATP, IL-1β in supernatant
Where a name gives a salt, the structure may show the parent alone.
result_type: log10 IC50 (log10 of the value in nM)

{"molecule": "Cc1cc(N[C@H]2CN3CCC2CC3)nnc1-c1ccc2c(c1O)CCC2 [Hydrochloride of compound 7]", "target_or_system": "NLRP3 (Homo sapiens, UniProt Q96P20)", "reported_value": 0.76}
{"molecule": "Cc1cc(N[C@@H]2CCCN(C3CCOCC3)C2)nnc1-c1ccc2sccc2c1O [Formate of compound 46]", "target_or_system": "NLRP3 (Homo sapiens, UniProt Q96P20)", "reported_value": -0.54}
{"molecule": "Cc1cc(N[C@@H]2CCCN(C3COC3)C2)nnc1-c1ccc2ccccc2c1O [Compound 28]", "target_or_system": "NLRP3 (Homo sapiens, UniProt Q96P20)", "reported_value": 1.27}
{"molecule": "Cc1cc(N[C@@H]2CCCN(C)C2)nnc1-c1ccc2ccsc2c1O [Formate of compound 45]", "target_or_system": "NLRP3 (Homo sapiens, UniProt Q96P20)", "reported_value": -1.11}
{"molecule": "Cc1cc2c(O)c(-c3nnc(N[C@H]4COC[C@@H]4O)cc3C)ccc2s1 [Hydrochloride of compound 66]", "target_or_system": "NLRP3 (Homo sapiens, UniProt Q96P20)", "reported_value": 0.91}
{"molecule": "Cc1cc(N[C@@H]2CCCN(C3COC3)C2)nnc1-c1ccc(C2CCC2)cc1O [Compound 25]", "target_or_system": "NLRP3 (Homo sapiens, UniProt Q96P20)", "reported_value": 1.49}
{"molecule": "COC1CC(N2CCC[C@@H](Nc3cc(C)c(-c4ccc5sccc5c4O)nn3)C2)C1 (some centres unmarked) [Compound 49]", "target_or_system": "NLRP3 (Homo sapiens, UniProt Q96P20)", "reported_value": -0.05}
{"molecule": "Cc1cc(N[C@@H]2CCCC[C@H]2O)nnc1-c1ccc2sccc2c1O [Hydrochloride of compound 60]", "target_or_system": "NLRP3 (Homo sapiens, UniProt Q96P20)", "reported_value": -0.36}

====

Let's look at some compounds and their measured bioavailability.
Test: In vivo pharmacokinetic evaluation in CD-1 mice
Conditions: male, mouse, plasma, dose IV/PO 2/10 mg/kg, read-out: Bioavailability F
Experimental: Experimental Example 2: In Vivo Pharmacokinetic Evaluation of Compounds in CD-1 Mice Experimental purpose: To test the in vivo pharmacokinetics of the compounds in CD-1 mice CD-1 mice (male, 7 to 9 weeks old) The rodent pharmacokinetic characteristics after intravenous injection and oral administration of the compounds were tested using a standard protocol. […]
Where a name gives a salt, the structure may show the parent alone.
result_type: bioavailability (%)

{"compound": "Cc1cc(N[C@@H]2CCCC[C@H]2O)nnc1-c1ccc2sccc2c1O [Hydrochloride of compound 60]", "result_type": "bioavailability", "reported_value": 147}
{"compound": "Cc1cc(N[C@@H]2CCCN(C)C2)nnc1-c1ccc2sccc2c1O [Hydrochloride of compound 20]", "result_type": "bioavailability", "reported_value": 96.5}
